conditions: 338.15 K; Liquid; Closed cell (Static) method
Measured Metric: vapor or sublimation pressure (kPa)
Report the figure in kPa without appending any unit label.

Study these solved cases before continuing.
# lookup: vapor or sublimation pressure of c1ccccc1 [benzene] 62.01

Which value of vapor or sublimation pressure has been reported for Cc1cccc(C)c1 [1,3-dimethylbenzene] in the records? 9.305

Return reported vapor or sublimation pressure; argument: Cc1ccccc1 [toluene] 22.61

Next:
Please look up its vapor or sublimation pressure: CCc1ccccc1 [ethylbenzene] 9.251

----------
settings: 403.15 K; Liquid; Closed cell (Static) method
Measured Metric: vapor or sublimation pressure (kPa)
Write the answer as a number in kPa, unit excluded.

Given the compound `Cc1ccc(C)cc1` , what is its reported vapor or sublimation pressure? 80.87

Query (compound): `CCc1ccccc1` ; field requested: vapor or sublimation pressure 85.64

Please look up its vapor or sublimation pressure: `Cc1ccccc1C` 68.42

***
vapor or sublimation pressure lookup needed for `Cc1cccc(C)c1` , thanks. 80.2

----------
conditions: 313.15 K; Liquid; Closed cell (Static) method
Measured vapor or sublimation pressure by item
Respond numerically; units are kPa and should not be typed.

Below are worked cases with known answers.
Requested read-out: vapor or sublimation pressure. Entry: `Cc1cccc(C)c1` 3.524

Find the recorded vapor or sublimation pressure belonging to `c1ccccc1` and report it. 24.3

# query: vapor or sublimation pressure of entry `Cc1ccc(C)cc1` 2.49

What does the data say about its vapor or sublimation pressure? Entry: `Cc1ccccc1C` 2.052

// next entry
Field request: vapor or sublimation pressure | item: `Cc1ccccc1` 7.963

----------
Each entry below carries its reported vapor or sublimation pressure.
conditions: 318.15 K; Liquid; Closed cell (Static) method
The reply should contain only the number, in kPa.

Worked set:
Consider the molecule `Cc1ccccc1` and give its measured vapor or sublimation pressure. 9.959

Which vapor or sublimation pressure is listed for `CCc1ccccc1` ? 3.746

Field request: vapor or sublimation pressure | item: `Cc1cccc(C)c1` 4.372

For the next question, use this molecule.
Which vapor or sublimation pressure value belongs to `c1ccccc1` ? 29.73

----------
Recorded vapor or sublimation pressure for the following compounds
conditions: 383.15 K; Liquid; Closed cell (Static) method
Dear colleague, please return just the value in kPa, with no unit written.

Example cases with answers are listed next.
Please look up its vapor or sublimation pressure: Cc1ccc(C)cc1 [1,4-dimethylbenzene] 44.56

Which vapor or sublimation pressure value is on record for CCc1ccccc1 [ethylbenzene] ? 47.75

Given Cc1ccccc1C [1,2-dimethylbenzene] , state its recorded vapor or sublimation pressure. 37.35

Continue with the compound presented below.
Quick one: vapor or sublimation pressure for Cc1cccc(C)c1 [1,3-dimethylbenzene] ? 44.23

----------
conditions: 333.15 K; Liquid; Closed cell (Static) method
Numbers after ± are expanded uncertainties.
Recorded measurements of vapor or sublimation pressure, one per entry

Quick one: vapor or sublimation pressure of `Cc1ccc(C)cc1` ? 6.997 ± 0.048 kPa

More entries:
Give its vapor or sublimation pressure value. Item: `Cc1ccccc1` 18.86 ± 0.057 kPa

Using the record for `c1ccccc1` , report its vapor or sublimation pressure. 52.11 ± 0.11 kPa

Reported vapor or sublimation pressure, compound `Cc1ccccc1C` : ____ 5.613 ± 0.047 kPa

Recorded vapor or sublimation pressure for `CCc1ccccc1` , please? 7.448 ± 0.031 kPa

Please report the recorded vapor or sublimation pressure for `Cc1cccc(C)c1` . 7.75 ± 0.038 kPa

Numbers sourced from the NIST ThermoML archive (doi:10.1016/j.fluid.2014.03.003).
